assay: Oral bioavailability of octreotide in rats (plasma OCT, competitive immunoassay); format: in vivo; conditions: rat, 0.2 mg/kg, read-out: Absolute bioavailability (F)

{"columns": ["compound", "bioavailability"],
 "data": [
  ["C[C@@H](O)[C@@H]1NC(=O)[C@H](CCCCN)NC(=O)[C@@H](Cc2c[nH]c3ccccc23)NC(=O)[C@H](Cc2ccccc2)NC(=O)[C@@H](NC(=O)[C@H](N)Cc2ccccc2)CSSC[C@@H](C(=O)N[C@H](CO)[C@@H](C)O)NC1=O [OCT in a saline solution, Octreotide]", "~0.04%"]
]}
